- Test system: S. aureus Newman;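 note: first quartile when negative (synergy) and third quartile when positive (antagonism)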
- assay method text: Bliss interaction score (quartile over a dose matrix) (fitness difference); higher = more antagonism (negative = synergy)
attribute measured: Bliss interaction score
Respond numerically, and do not add a unit to the figure.

Record excerpt, results attached:
[
  {
    "compound": "C[C@H]1COc2c(N3CCN(C)CC3)c(F)cc3c(=O)c(C(=O)O)cn1c23 [Levofloxacin] + CN(N=O)C(=O)N[C@@H](C=O)[C@@H](O)[C@H](O)[C@H](O)CO [Streptozotocin]",
    "Bliss interaction score": -0.102
  },
  {
    "compound": "CO/N=C(\\C(=O)N[C@@H]1C(=O)N2C(C(=O)[O-])=C(C[N+]3(C)CCCC3)CS[C@H]12)c1csc(N)n1 [Cefepime] + Clc1ccc(COC(Cn2ccnc2)c2ccc(Cl)cc2Cl)c(Cl)c1 [Miconazole]",
    "Bliss interaction score": -0.0643
  },
  {
    "compound": "CO/N=C(\\C(=O)N[C@@H]1C(=O)N2C(C(=O)[O-])=C(C[N+]3(C)CCCC3)CS[C@H]12)c1csc(N)n1 [Cefepime] + CC1=C\\[C@@H](O)CC(=O)Cc2nc(co2)C(=O)N2CCC=C2C(=O)O[C@H](C(C)C)[C@H](C)/C=C/C(=O)NC\\C=C\\1 [Virginiamycin M1]",
    "Bliss interaction score": -0.0566
  },
  {
    "compound": "CCN(CC)CCOC(=O)c1ccc(N)cc1 [Procaine] + Oc1cc(Cl)ccc1Oc1ccc(Cl)cc1Cl [Triclosan]",
    "Bliss interaction score": -0.0125
  },
  {
    "compound": "CC1(C)S[C@@H]2[C@H](NC(=O)[C@H](N)c3ccc(O)cc3)C(=O)N2[C@H]1C(=O)O [Amoxicillin] + C[C@@H](O)[C@H]1C(=O)N2C(C(=O)O)=C(SCCNC=N)C[C@H]12 [Imipenem]",
    "Bliss interaction score": 0.0343
  },
  {
    "compound": "C[C@H]1COc2c(N3CCN(C)CC3)c(F)cc3c(=O)c(C(=O)O)cn1c23 [Levofloxacin] + CC1(C)S[C@@H]2[C@H](NC(=O)Cc3ccccc3)C(=O)N2[C@H]1C(=O)O [PenicillinG]",
    "Bliss interaction score": -0.0602
  },
  {
    "compound": "CCCCCCCCCC(=O)N[C@@H](Cc1c[nH]c2ccccc12)C(=O)N[C@H](CC(N)=O)C(=O)N[C@@H](CC(=O)O)C(=O)N[C@@H]1C(=O)NCC(=O)N[C@@H](CCCN)C(=O)N[C@@H](CC(=O)O)C(=O)N[C@H](C)C(=O)N[C@@H](CC(=O)O)C(=O)NCC(=O)N[C@H](CO)C(=O)N[C@@H]([C@H](C)CC(=O)O)C(=O)N[C@@H](CC(=O)c2ccccc2N)C(=O)O[C@@H]1C [Daptomycin] + CN(C)C(=O)C(CCN1CCC(O)(c2ccc(Cl)cc2)CC1)(c1ccccc1)c1ccccc1 [Loperamide]",
    "Bliss interaction score": 0.0375
  }
]

Q: Request the reported Bliss interaction score associated with CC1(C)S[C@@H]2[C@H](NC(=O)[C@H](N)c3ccc(O)cc3)C(=O)N2[C@H]1C(=O)O [Amoxicillin] + CCC[C@@H]1C[C@@H](C(=O)N[C@@H]([C@H]2O[C@H](SC)[C@H](O)[C@@H](O)[C@H]2O)[C@@H](C)O)N(C)C1 [Lincomycin]
A: 0.117
